Consider the following molecules and their measured remaining at 1 h, 1 µM readings.
test: Metabolic stability in mouse liver S9 fractions assessed as compound remaining at 1 uM after 1 hr by HPLC-ESI-MS/MS analysis in presence of NADPH regenerating system; format: ADME, subcellular, Liver S9 fraction; conditions: read-out: Stability
Numeric answer plus unit only.

{"Smiles Notation": "C[C@H](CCC(=O)N[C@@H](Cc1c[nH]c2ccccc12)C(=O)O)[C@H]1CC[C@H]2[C@@H]3CC=C4C[C@@H](O)CC[C@]4(C)[C@H]3CC[C@]12C", "Val": "70%"}

Next:
### Prompt Name the recorded remaining at 1 h, 1 µM for `C[C@H](CCC(=O)N[C@H](CC(=O)O)Cc1c[nH]c2ccccc12)[C@H]1CC[C@H]2[C@@H]3CC[C@@H]4C[C@H](O)CC[C@]4(C)[C@H]3CC[C@]12C` .
### Response 56%

Values compiled from ChEMBL document CHEMBL3734669.
